Max. Activity (fold over background) values, listed per item
measuredOn: Vg9/Vd2 T cell receptor expressed on SKW3_4 cells (UniProt Q99603)
Sequence (Q99603 21-122, chain 1 of 2): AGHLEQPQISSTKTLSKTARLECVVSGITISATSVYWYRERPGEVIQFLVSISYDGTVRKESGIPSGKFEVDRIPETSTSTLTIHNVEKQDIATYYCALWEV
Sequence (A0JD36 20-115, chain 2 of 2, further chain): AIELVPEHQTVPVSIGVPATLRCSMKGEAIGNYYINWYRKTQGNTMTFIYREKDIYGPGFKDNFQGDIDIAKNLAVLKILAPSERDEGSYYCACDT
procedureDetails: flow cytometry, dose-response binding at 37 C, SKW3_4 cells expressing Vg9/Vd2

Here are 3 binders together with their reported answers.
>  <binder>
VG9B163 (antibody, human IgG1, lambda, V domains shown) VH: QVQLVQSGGGLVKPGASLKLSCAASGFTFSNHGMSWVRQTSDKRLEWVASITRGGDTTYYPDNVKGRFTISRENAKNTLYLQMSSLKSDDTALYYCTRGPLTVGYAMDYWGQGTTVTVSS VL: QLVLTQPPSVSAAPGQKVTISCSGNSSNIGHNYVSWYQQLPGTAPKLLIYDNNQRPSGIPDRFSGSKSDTSATLGITGLQTGDEADYYCGIWDSSLSIVVFGGGTKVTVLG

>  <experimentalEndpoint>
Max. Activity (fold over background)

>  <result>
57.2

$$$$
>  <binder>
VG9B177 (antibody, human IgG1, lambda, V domains shown) VH: QVQLQESGPGLVKPSETLSLTCTVSGGSINNYFWSWIRQPPGKGLEWIGYIFYSGSTNYNPSLKSRVTISIDTSKNQFSLKVNSVTAADTAVYYCARVGKWELRTAFDIWGQGTMVTVSS VL: QSALTQPASVSGSPGQSITISCTGTSSDVADYNYVSWYQQHPGKAPKLMIYEVSNRPSGVSNRFSGSKSGNTASLTISGLQAEDEADYYCCSYTSSFTVVFGGGTKVTVLG

>  <experimentalEndpoint>
Max. Activity (fold over background)

>  <result>
161

$$$$
>  <binder>
VG9B114 (antibody, human IgG1, kappa, V domains shown) VH: EVQLVESGGDLVQPGGSLRLSCAASGFTFSRYDMHWVRQATGKGLEWVSAIGSAGDTYYPGSVKGRFTISRENAKNSLYLQMNSLRAGDTAVYYCARGKWELRDAFDIWGQGTMVTVSS VL: DIVMTQSPSFLSASVGDRVTITCRASQGIHSYLAWYQQKPGKAPKLLIYVASTLQSGVPSRFSGSRSGTEFTLTISSLQPEDFATYYCQQLNSYPYTFGQGTKLEIKR

>  <experimentalEndpoint>
Max. Activity (fold over background)

>  <result>
176

$$$$

Query: Provide only the value of recorded Max. Activity (fold over background) for VG9B87 (antibody, human IgG1, kappa, V domains shown) VH: QVQLVESGAEVKKPGASVKVSCKASGYTFTSEYIHWVRQAPGQGLEWMGIINPSGGSTSYAQRFQGRVTMTRDTSTSTVYMEVNSLRSEDTAVYYCARERGYSYGSFDYWGQGTLVTVSS VL: EIVLTQSPSFLSASAGDRVTITCRASQGISSYLAWYQQKPEKAPKLLIYAASTLQSGVPSRFSGSGSGTEFTLTISSLQPEDFATYYCQQFNSYSLTFGGGTKLEIKR
Reply: 139
